tested target: KRas G13D (Homo sapiens, UniProt P01116, G13D)
Construct: Biotinylated KRas (corresponding to amino acids 1-169, produced at Accelegan Inc.); biotin (biotinylated); purchased Accelegan Inc
Sequence (P01116 1-169 isoform P01116-2 G13D): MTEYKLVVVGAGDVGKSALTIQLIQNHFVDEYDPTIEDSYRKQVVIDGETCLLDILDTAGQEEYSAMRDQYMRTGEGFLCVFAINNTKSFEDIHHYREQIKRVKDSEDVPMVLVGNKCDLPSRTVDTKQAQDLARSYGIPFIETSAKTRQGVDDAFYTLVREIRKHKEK
measurement notes: KRas binding assay (TR-FRET displacement);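 note: One-hour room temperature incubation before TR-FRET reading, IC50 from a four-parameter curve fit to percent-of-control data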
quantity kind: IC50 (nM)
Number in nM, nothing else.

Name the value of IC50 reported for `O[C@@H]1C[C@H](O)CN(c2nc(OCC34CCCN3CCC4)nc3c(F)c(-c4cccc5cccc(F)c45)ncc23)C1` when tested on KRas G13D (Homo sapiens, UniProt P01116, G13D).
1810

Name the value of IC50 reported for NS(=O)(=O)NC1CCCN(c2nc(OCC34CCCN3CCC4)nc3c(F)c(-c4cccc5cccc(F)c45)ncc23)C1 (stereo not shown) when tested on KRas G13D (Homo sapiens, UniProt P01116, G13D).
350

Name the value of IC50 reported for OC1CC2CC(C1)N(c1nc(OCC34CCCN3CCC4)nc3c(F)c(-c4cccc5cccc(Cl)c45)ncc13)C2 (stereo not shown) when tested on KRas G13D (Homo sapiens, UniProt P01116, G13D).
2340

Name the value of IC50 reported for Fc1c(-c2cccc3cccc(F)c23)ncc2c(N3CCCC(c4nc[nH]n4)C3)nc(OCC34CCCN3CCC4)nc12 (stereo not shown) when tested on KRas G13D (Homo sapiens, UniProt P01116, G13D).
2000
